biological target: T1, recombinant SARS-CoV-2 Spike RBD domain, Wuhan (SARS-CoV-2); assay: ELISA on coated RBD
T1 construct: also called RBD Wuhan
measuredMetric: Binding AUC
Enter a number only.

>  <binder>
SPK002M A3 antibody (antibody, human IgG1, kappa, V domains shown) VH: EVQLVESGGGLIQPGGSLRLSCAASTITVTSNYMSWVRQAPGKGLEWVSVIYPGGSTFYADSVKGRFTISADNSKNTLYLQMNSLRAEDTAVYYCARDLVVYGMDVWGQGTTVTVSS VL: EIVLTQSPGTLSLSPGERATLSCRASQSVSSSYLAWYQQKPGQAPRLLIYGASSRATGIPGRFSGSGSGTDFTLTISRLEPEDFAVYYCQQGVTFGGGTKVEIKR

>  <measuredMetric>
Binding AUC

>  <recordedNumber>
33

$$$$

// moving on: another record for Binding AUC
Task: Given the binder SPK002M C3 antibody (antibody, human IgG1, kappa, V domains shown) VH: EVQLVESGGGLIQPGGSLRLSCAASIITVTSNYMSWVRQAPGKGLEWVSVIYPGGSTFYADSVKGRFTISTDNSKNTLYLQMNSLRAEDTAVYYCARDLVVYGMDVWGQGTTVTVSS VL: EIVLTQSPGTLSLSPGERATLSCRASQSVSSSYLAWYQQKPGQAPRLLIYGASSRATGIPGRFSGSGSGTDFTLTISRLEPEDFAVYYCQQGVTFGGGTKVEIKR , what is its reported Binding AUC?
Output: 34
